# System: HCC-2998 colon
# protocol: NCI tumour cell line growth inhibition, 48 h; in the data active = GI50 below about 0.43 µM; inactive = the rest
Can you answer with just one of these options? active, inactive

Example results:
>>> assigned_label("COc1ccc2cc(-c3cnc4nonc4n3)ccc2c1")
"inactive"
>>> assigned_label("COc1ccccc1C#Cc1ccccc1C#Cc1ccc(OCCCCCCOc2ccccc2C#Cc2ccccc2C#Cc2ccccc2OC)cc1")
"inactive"
>>> assigned_label("O=S(=O)(N=C1C(Cl)=C(Cl)C(=NS(=O)(=O)c2ccccc2)C(Cl)=C1Cl)c1ccccc1")
"inactive"

Ask: Call for entry FC1(F)ON2CCc3ccccc3C2[C@H]1c1ccccc1 (some centres undefined) :
Reply: inactive

Ask: Name the outcome recorded for CCSC[C@@H]1C[C@](O)(c2ccc(Cl)cc2)[C@@H](c2ccc(Cl)cc2)O1 in the assay.
Reply: inactive

Ask: Returns: the outcome recorded for CSc1cc([C@@H]2C[C@H]2c2ccc(Cl)cc2)on1 in this assay.
Reply: inactive

Ask: Lab log entry: Cc1c(Cn2c(C)nc3c(C(=O)O)cc(N4CCOCC4)cc32)cccc1C(F)(F)F — outcome as called in the assay?
Reply: inactive

Ask: Recorded call for CC1(C)N=C(N)N=C(N)N1c1ccc(CNC(=O)Nc2ccc(S(=O)(=O)F)c(Cl)c2)c(Cl)c1 ?
Reply: inactive

Ask: Hello, I am checking results. What call was entered for COc1ccc(Nc2nc(NCCNc3ccnc4cc(Cl)ccc34)nc(N3CCOCC3)n2)cc1 ?
Reply: inactive

Ask: // return assay outcome for CCOC(=O)C(=Cc1ccc(C#N)cc1)C(=O)OCC
Reply: inactive

Ask: Recorded test call requested for CC(=O)O.CN1[CH-]N(Cc2ccc(C#N)cc2)c2ccccc21.[Ag+]
Reply: inactive

Ask: // param item: COC[C@H](NC(=O)c1cnc(C)s1)C(=O)N[C@@H](COC)C(=O)N[C@@H](Cc1ccccc1)C(=O)[C@@]1(C)CO1 ; yields the recorded call
Reply: inactive

Ask: Each compound tested received a call. Report the one for NC(=S)N/N=C/c1ccc(OC(=O)COc2cc(Cl)c(Cl)cc2Cl)cn1 .
Reply: inactive

Ask: Could you check what this test reported for COc1cc(-n2ccnc2-c2ccc3ccccc3c2)cc(OC)c1OC ?
Reply: active

====

# Test system: UO-31 renal
# protocol: NCI tumour cell line growth inhibition, 48 h
endpoint name: GI50

Worked cases, answers included:
>>> test_result("Cc1ccc(CNc2ccc3nc(CCC4CCCCC4)[nH]c3c2)cc1")
"1.35 µM"
>>> test_result("Fc1cccc(COc2ccc(Nc3ncnc4onc(-c5ccccc5)c34)cc2)c1")
"3 µM"
>>> test_result("COc1ccc(-c2ncnc3c2ncn3CC#CCCl)cc1")
"2.43 µM"
>>> test_result("NC(=S)N/N=C/c1ccc(OC(=O)COc2cc(Cl)c(Cl)cc2Cl)cn1")
"3.18 µM"

Ask: Please report the recorded GI50 for COc1ccc2cc(-c3cnc4nonc4n3)ccc2c1 .
Reply: 3.23 µM

Ask: Quick one: GI50 of COc1ccc(Nc2nc(NCCNc3ccnc4cc(Cl)ccc34)nc(N3CCOCC3)n2)cc1 ?
Reply: 1.33 µM

Ask: Please report the recorded GI50 for COc1ccccc1C#Cc1ccccc1C#Cc1ccc(OCCCCCCOc2ccccc2C#Cc2ccccc2C#Cc2ccccc2OC)cc1 .
Reply: > 100 µM

Ask: Which measured GI50 value corresponds to O=C(O)Cc1cccc2c(=O)cc(-c3ccccc3)oc12 ?
Reply: 25.5 µM

Ask: Returns the measured GI50 for the input molecule. Input: O=S(=O)(N=C1C(Cl)=C(Cl)C(=NS(=O)(=O)c2ccccc2)C(Cl)=C1Cl)c1ccccc1
Reply: 18.8 µM

Ask: Look up GI50 for this molecule: Oc1ccccc1-c1nn(CNc2ccc(Cl)cc2)c(=S)o1
Reply: > 100 µM

====

# Test system: NCI-H522 lung
# protocol: NCI tumour cell line growth inhibition, 48 h; in the data active = GI50 below about 0.43 µM; inactive = the rest
Could you please pick one outcome from this set? active, inactive

>>> assigned_label("Cc1c(Cn2c(C)nc3c(C(=O)O)cc(N4CCOCC4)cc32)cccc1C(F)(F)F")
"inactive"
>>> assigned_label("COc1cc2nc(N3CCCN(C)CC3)nc(NC3CCN(Cc4ccccc4)CC3)c2cc1OC")
"inactive"
>>> assigned_label("COc1cc(-c2nn(-c3cccc(NC(=O)Nc4ccc(Cl)c(C(F)(F)F)c4)c3)cc2-c2ccncc2)ccc1Cl")
"inactive"
>>> assigned_label("COc1cc2nc(Nc3cccc(Cl)c3)nc(N)c2cc1OC")
"inactive"

Next up:
Ask: Query: recorded result category for CCOC(=O)c1[nH]c2cc(Cl)ccc2c1[C@@H](C(=O)NC(C)(C)C)N(CC)C(=O)CCCCC#Cc1cccc2c1CN(C1CCC(=O)NC1=O)C2=O (stereo partly drawn) in this test
Reply: inactive

====

# Tested on: HOP-92 NSCLC
# protocol: NCI tumour cell line growth inhibition, 48 h
endpoint name: TGI (µM)
Express your answer in µM, writing the number without its unit.

>>> test_result("COc1ccc(S(=O)(=O)Nc2ccc(-c3csc(N4C(=O)/C(=C/c5ccccc5[N+](=O)[O-])N=C4c4ccccc4)n3)cc2)cc1Cl")
87.5
>>> test_result("COc1ccc(C2CC(c3c(O)ccc4ccccc34)=NN2)cc1OC (stereo not given)")
24.7

Here is the next item to consider.
Ask: Query: TGI; subject: COc1ccc(N2C(=O)C3CC(c4ccc(Br)cc4)c4c([nH]c5ccccc45)C3C2=O)cc1 (stereo not given)
Reply: 29.3

====

# Test system: NCI-H23 lung
# protocol: NCI tumour cell line growth inhibition, 48 h
endpoint name: TGI

Example results:
>>> test_result("COc1ccccc1C#Cc1ccccc1C#Cc1ccc(OCCCCCCOc2ccccc2C#Cc2ccccc2C#Cc2ccccc2OC)cc1")
"> 100 µM"
>>> test_result("COc1ccc(C2CC(c3c(O)ccc4ccccc34)=NN2)cc1OC (configuration not stated)")
"13.8 µM"
>>> test_result("COC(=O)Nc1nc2ccc(NS(=O)(=O)c3cccs3)cc2[nH]1")
"> 100 µM"
>>> test_result("C=C(/C=C/C=C(\\C)CCC=C(C)C)[C@@H]1CC[C@]2([C@H](CCCO)/C(=C(/C)C=O)CC[C@]2(C)O)[C@@H]1O")
"45.7 µM"
>>> test_result("CC(C)(C)C1=CC(=N/N=c2\\scc(-c3ccccc3)n2-c2ccccc2)C=C(C(C)(C)C)C1=O")
"> 100 µM"

Let's switch to this molecule now.
Ask: What measured TGI goes with CC(C)(C)C1=C(Br)C(F)(C(C)(C)C)OP1(=O)c1ccccc1 (configuration not stated) ?
Reply: 37.9 µM

====

# System: COLO 205 colon
# protocol: NCI tumour cell line growth inhibition, 48 h
Items are presented alongside their recorded TGI.

Use the examples below as a reference point.
>>> test_result("COc1cc(CCC[P+](c2ccccc2)(c2ccccc2)c2ccccc2)c(OC)c2c1OCO2")
"3.38 µM"
>>> test_result("O=S(=O)(O)c1ccc(N=Nc2ccccc2)cc1")
"> 100 µM"
>>> test_result("C=C1C(C(=O)OC)[C@H]1C(=O)OC (stereo not given in full)")
"> 100 µM"

Ask: // TGI lookup, key: COc1c2c(c3c(c1OC)c(=O)c1ccccc1n3C)OCO2
Reply: > 100 µM

Ask: What does the record list as TGI for O=C(CC1(O)C(=O)Nc2c(Cl)cc(Cl)cc21)c1ccccc1 (stereo not given) ?
Reply: > 100 µM

Ask: Give its TGI value. Item: CCOC(=O)c1ccc(-n2cnc(-c3ccc([N+](=O)[O-])cc3)c2)cc1
Reply: > 100 µM

Ask: Look up TGI for this compound: CCC1=C(c2ccc(OC)cc2)C(C)(C)Oc2c1ccc(O)c2CN1CCCC1
Reply: 87.4 µM

Ask: Would you kindly share the measured TGI for Cc1ccc(CNc2ccc3nc(CCC4CCCCC4)[nH]c3c2)cc1 ?
Reply: 3.66 µM

Ask: Data request, read-out TGI, for O=C1CCCCCCC2=C1C(Sc1ccccc1)CC2 (stereo not given)
Reply: > 100 µM

Ask: Any idea what its TGI is? The compound is COc1ccc2c(c1)CCC1C2CC[C@@]2(C)C1CC[C@@H]2NC(=O)Cc1ccc(O)c(O)c1 (stereo not given in full)
Reply: 12.5 µM

Ask: Would you mind telling me what TGI value was observed for COc1cc(C2C=C(c3ccccc3)Oc3cc4c(cc32)OCO4)cc(OC)c1OC (stereo not given) ?
Reply: > 17.1 µM

Ask: What value of TGI has been reported for the following compound? CCOC(=O)C(NC(=O)c1cccc(Cl)c1)(Nc1ccc(S(=O)(=O)Nc2cc(C)on2)cc1)C(F)(F)F (stereo not given)
Reply: > 100 µM

====

# System: SNB-75 CNS
# protocol: NCI tumour cell line growth inhibition, 48 h
endpoint name: TGI

Field: example entries. Status: answers known.
>>> test_result("CN(O)C(=O)CCC(NC(=O)CCC(N)C(=O)O)C(=O)NCC(=O)O (centres undefined)")
"> 100 µM"
>>> test_result("COC[C@H](NC(=O)c1cnc(C)s1)C(=O)N[C@@H](COC)C(=O)N[C@@H](Cc1ccccc1)C(=O)[C@@]1(C)CO1")
"> 100 µM"
>>> test_result("Cc1cn(C2CC(n3cc(Cn4ccc(=O)[nH]c4=O)nn3)C(CO)O2)c(=O)[nH]c1=O (centres undefined)")
"> 100 µM"

Ask: I would be grateful if you could share the reported TGI for O=c1cc(-c2ccc(F)cc2)[nH]c2ncccc12 .
Reply: 81.1 µM

Ask: Value lookup for TGI; key = CCSC[C@@H]1C[C@](O)(c2ccc(Cl)cc2)[C@@H](c2ccc(Cl)cc2)O1
Reply: 32.4 µM

Ask: Returns the measured TGI for the input compound. Input: O=[N+]([O-])c1ccc(-c2csc(N=Nc3c(O)[nH]c4ccccc34)n2)cc1
Reply: > 100 µM

Ask: Field request: TGI | item: COc1ccc(Nc2nc(NCCNc3ccnc4cc(Cl)ccc34)nc(N3CCOCC3)n2)cc1
Reply: 8.73 µM

Ask: For C[C@H](Nc1nc(N)c(N=O)c(=O)n1C)C(=O)O , what is its reported TGI?
Reply: > 10 µM

Ask: Tell me the measured TGI of CCOP(=O)(OCC)Oc1c(OC)c2[nH]c(C(=O)OC)cc2c2c(C(=O)O)c[nH]c12 , please.
Reply: > 100 µM
